# System: Setaria faberi
# protocol-details: Post-emergence herbicidal activity, SETFA
# Assay type: in vivo
# Set-up: key: 5=total damage to plant; 0=no damage to plant
# experimental-context: 1000 g/Ha, sprayed post-emergence (8 days cultivation), evaluated after 13 days, scale 0-5
endpoint: SETFA damage score, application post-emergence
Answers are plain numbers.

Worked set:
{"columns": ["compound", "reported-result"],
 "data": [
  ["C=CCC1C(O)N(c2cc(C(C)(C)C)ncn2)C(=O)N1C (single isomer, unassigned) [Example A33]", 5],
  ["CN1CC(O)N(c2cc(C(F)(F)Cl)ncn2)C1=O (stereo not shown) [Example A39]", 5],
  ["CCN1C(=O)N(c2cc(C(C)(C)C)ncn2)C(O)C1OC (stereo not shown) [Example A26]", 2],
  ["CCOC1C(O)N(c2cc(C(C)(C)C)ncn2)C(=O)N1OC (stereo not shown) [Example A8]", 5],
  ["CCOC1C(O)N(c2cc(C(C)(C)C#N)ncn2)C(=O)N1C (stereo not shown) [Example A18]", 5]
]}

Lab note: each compound below needs its SETFA damage score, application post-emergence filled in.
1. CN1C(=O)N(c2cc(C(C)(C)C)ncn2)C(O)C1CC(F)(F)F (stereo not shown) [Example A34]
2. CCCOC1C(OCCC)N(c2cc(C(C)(C)C)ncn2)C(=O)N1C (stereo not shown) [Example A28]
3. CCCOC1C(O)N(c2cc(C(C)(C)C)ncn2)C(=O)N1C (stereo not shown) [Example A10]
4. CN1CC(O)N(c2cc(C(C)(C)C)ncn2)C1=O (stereo not shown) [Example A1]

1: 3; 2: 0; 3: 4; 4: 5

====

# System: Setaria faberi
# protocol-details: Post-emergence herbicidal activity, SETFA
# Assay type: in vivo
# Design: key: 5=total damage to plant; 0=no damage to plant
# experimental-context: 1000 g/Ha, sprayed post-emergence (8 days cultivation), evaluated after 13 days, scale 0-5
Exercise: for every item that follows, state its recorded SETFA damage score, application post-emergence.

Below, 3 molecules whose answers are already recorded.
{"columns": ["molecule", "test-target", "reported-result"],
 "data": [
  ["CON1C(=O)N(c2cc(C(C)(C)F)ncn2)C(O)C1C (stereo not shown)", "Setaria faberi", 5],
  ["CCO[C@@H]1C(O)N(c2cc(C(C)(C)F)ncn2)C(=O)N1C (stereo partly shown)", "Setaria faberi", 5],
  ["C=CC1C(O)N(c2cc(C(C)(C)C)ncn2)C(=O)N1C (stereo not shown)", "Setaria faberi", 5]
]}

Answer for every listed entry: what is its SETFA damage score, application post-emergence? The entries follow.
1. CON1C(=O)N(c2cc(C(C)(C)C)ncn2)C(O)C1C (stereo not shown)
2. CCOC1C(O)N(c2cc(C(C)(C)C)ncn2)C(=O)N1C (stereo not shown)
3. CCC1C(O)N(c2cc(C(C)(C)C)ncn2)C(=O)N1OC (stereo not shown)
4. CON1CC(O)N(c2cc(C(C)(C)C)ncn2)C1=O (stereo not shown)
5. CCOC1C(O)N(c2cc(C(C)(C)C)ncn2)C(=O)N1CC (stereo not shown)
6. CCCC1C(O)N(c2cc(C(C)(C)C)ncn2)C(=O)N1C (stereo not shown)

1: 5; 2: 5; 3: 2; 4: 5; 5: 3; 6: 5

Reported SETFA damage score, application post-emergence ( CC1C(O)N(c2cc(C(C)(C)F)ncn2)C(=O)N1C (stereo not shown) ) = 5
